Biological target: T1, GST-human NOGO-A56 (human, UniProt P08515 1-218 = GST)
T1 construct: GST-tagged fusion expressed in E. coli BL21 and purified on glutathione-sepharose; coated on ELISA plates or amine-coupled to a CM5 chip; also called hNOGO; recombinant human NOGO
T1 sequence (P08515 1-218, tags or fused parts left off): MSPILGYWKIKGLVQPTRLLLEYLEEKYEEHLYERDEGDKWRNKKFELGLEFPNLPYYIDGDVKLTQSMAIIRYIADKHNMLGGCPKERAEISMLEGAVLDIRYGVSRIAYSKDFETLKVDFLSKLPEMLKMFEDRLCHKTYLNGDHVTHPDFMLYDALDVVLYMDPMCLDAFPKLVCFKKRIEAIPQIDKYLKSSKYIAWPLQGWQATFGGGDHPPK
Assay: SPR (Biacore 3000), GST-human NOGO-A56 on CM5, antibody as analyte; single experiment
measurement_name: Kd (nM)
Number only, in nM; omit the unit.

Quick one: give measured Kd for H6L13 (antibody, human IgG1, kappa, V domains shown, Humanised 2A10; Human gamma1 mutated constant region and human kappa; also called H6L13 FL) VH: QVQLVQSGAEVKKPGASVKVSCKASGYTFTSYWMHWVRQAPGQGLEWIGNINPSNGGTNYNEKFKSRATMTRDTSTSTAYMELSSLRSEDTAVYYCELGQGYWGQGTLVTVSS VL: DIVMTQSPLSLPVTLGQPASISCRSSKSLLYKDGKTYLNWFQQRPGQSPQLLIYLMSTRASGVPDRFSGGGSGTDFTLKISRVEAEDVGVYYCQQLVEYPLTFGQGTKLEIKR 7.3

Quick one: give measured Kd for H14L16 (antibody, human IgG1, kappa, V domains shown) VH: QVQLVQSGAEVVKPGASVKLSCKASGYTFTSYWMHWVKQAPGQGLEWIGNINPSNGGTNYNEKFKSRATLTRDTSTSTAYMELSSLRSEDTAVYYCELGQGYWGQGTLVTVSS VL: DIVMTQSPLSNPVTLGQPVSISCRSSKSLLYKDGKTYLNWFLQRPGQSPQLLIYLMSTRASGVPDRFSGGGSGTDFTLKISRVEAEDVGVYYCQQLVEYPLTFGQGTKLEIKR 3.6

Quick one: give measured Kd for H1L11 (antibody, human IgG1, kappa, V domains shown, Earlier humanised 2A10) VH: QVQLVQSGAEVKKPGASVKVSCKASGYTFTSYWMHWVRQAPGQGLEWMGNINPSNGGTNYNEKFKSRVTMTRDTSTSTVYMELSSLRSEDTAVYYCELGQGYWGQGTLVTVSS VL: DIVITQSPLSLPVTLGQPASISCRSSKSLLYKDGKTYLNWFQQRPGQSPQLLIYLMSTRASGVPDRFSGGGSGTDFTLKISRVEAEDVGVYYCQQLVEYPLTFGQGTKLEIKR 21.3

Quick one: give measured Kd for H14L18 (antibody, human IgG1, kappa, V domains shown) VH: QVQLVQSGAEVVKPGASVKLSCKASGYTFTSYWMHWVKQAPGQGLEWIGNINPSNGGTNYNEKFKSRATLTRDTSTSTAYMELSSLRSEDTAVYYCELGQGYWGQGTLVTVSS VL: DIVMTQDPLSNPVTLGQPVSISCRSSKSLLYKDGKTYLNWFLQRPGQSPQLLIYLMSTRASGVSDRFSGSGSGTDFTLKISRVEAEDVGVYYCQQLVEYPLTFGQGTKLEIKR 3.6
